# Tested on: human APOE RNA
# assay: Dose-dependent inhibition of human APOE RNA in HepG2 cells, electroporation, 50,000 cells per well, RT-PCR normalized to GAPDH (Example 4, Tables 8-10)
# Type: cell-based
# condition_set: HepG2, electroporation, 16-hour treatment
# Description: Modified oligonucleotides selected from the examples above were tested at various doses in HepG2 cells. The modified oligonucleotides were tested in a series of experiments that had the same culture conditions. Each experiment is identified in separate tables below. HepG2 cells plated at a density of 50,000 cells per well were treated by electroporation with various concentrations of modified oligonucleotide as specified in the tables below. […]
pIC50: −log10 of the molar value. Strand notation (5' to 3'): a small letter for the sugar, then the base; units joined by * are phosphorothioate-linked, units joined directly phosphodiester-linked; [ ] holds rarer units or linkages, { } end groups; capitals alone tell only the bases. [ms] = mesyl phosphoramidate linkage; e = 2'-O-(2-methoxyethyl) (MOE); k = constrained ethyl (cEt); [5mC] = 5-methylcytosine; d = 2'-deoxy (DNA)
Below, each entry is listed alongside its reported pIC50.
measured_parameter: pIC50

{"substance": "1757556: mixed MOE/cEt gapmer TTGGTGAATCTTTATTAA, sugar eeeeeddddddddekkee, linkages soossssssssssooss (eT*eTeGeG*eT*dG*dA*dA*dT*d[5mC]*dT*dT*dT*eAkTkT*eA*eA) [compound 1757556]", "observed_measurement": 5.45}
{"substance": "1766537 (eT*eTeGeGeT*dG[ms]dA[ms]dA[ms]dT*d[5mC]*dT*dT*dT[ms]dA*dT*kTkAeA*eA*e[5mC]; antisense) [Compound 1766537]", "observed_measurement": 5.70}
{"substance": "1757582 (eT*eTeGkGkT*dG*dA*dA*dT*d[5mC]*dT*dT*dT*dA*dT*eTeAeA*eA*e[5mC]; antisense) [Compound 1757582]", "observed_measurement": 6.15}
